So I've got a bunch of binders here, and I need their OD450 values.
# Target Desc: T1, human MSLN-FL-his protein (human, UniProt Q13421 296-580)
# T1 construct: Made in HEK293E cells, purified on nickel column; also called hMSLN-FL-his; human MSLN full-length protein; not shown: His tag
# T1 sequence (Q13421 other isoform, or with tags, fused parts or gaps): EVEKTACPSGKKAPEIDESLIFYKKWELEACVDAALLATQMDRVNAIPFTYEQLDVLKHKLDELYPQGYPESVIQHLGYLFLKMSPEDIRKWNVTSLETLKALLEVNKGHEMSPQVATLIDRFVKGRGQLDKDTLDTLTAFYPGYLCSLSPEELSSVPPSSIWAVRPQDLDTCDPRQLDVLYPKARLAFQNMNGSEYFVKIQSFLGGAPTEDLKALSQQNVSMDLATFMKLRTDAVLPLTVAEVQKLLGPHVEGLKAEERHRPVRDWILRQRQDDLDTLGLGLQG
# Assay Comment: ELISA, coated antigen, antibody 200 nM
Answers are plain numbers.

S009-F7.66.12 chimeric antibody (antibody, human IgG1, kappa, V domains shown, Human-murine chimeric antibody, human IgG1/kappa constant regions) VH: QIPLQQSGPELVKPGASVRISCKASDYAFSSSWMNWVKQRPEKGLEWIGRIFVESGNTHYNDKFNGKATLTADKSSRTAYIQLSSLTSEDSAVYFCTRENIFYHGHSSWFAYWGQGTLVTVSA VL: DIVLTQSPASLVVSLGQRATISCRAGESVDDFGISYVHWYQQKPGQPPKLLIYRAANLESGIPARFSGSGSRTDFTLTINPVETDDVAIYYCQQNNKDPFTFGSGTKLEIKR
2.1
S009-F7.30.5 chimeric antibody (antibody, human IgG1, kappa, V domains shown, Human-murine chimeric antibody, human IgG1/kappa constant regions) VH: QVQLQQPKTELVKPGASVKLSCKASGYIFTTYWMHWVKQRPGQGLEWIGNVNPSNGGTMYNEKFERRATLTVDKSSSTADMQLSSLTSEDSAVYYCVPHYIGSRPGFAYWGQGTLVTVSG VL: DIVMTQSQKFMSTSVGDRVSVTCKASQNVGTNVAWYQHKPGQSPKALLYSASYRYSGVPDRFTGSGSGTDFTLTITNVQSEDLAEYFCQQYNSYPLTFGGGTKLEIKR
2.36

Now look at this entry.
I'd like to know its OD450. The binder in question is S009-F7.25.19 chimeric antibody (antibody, human IgG1, kappa, V domains shown, Human-murine chimeric antibody, human IgG1/kappa constant regions) VH: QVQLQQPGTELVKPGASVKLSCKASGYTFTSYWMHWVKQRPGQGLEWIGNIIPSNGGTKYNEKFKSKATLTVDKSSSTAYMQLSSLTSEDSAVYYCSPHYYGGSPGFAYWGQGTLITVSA VL: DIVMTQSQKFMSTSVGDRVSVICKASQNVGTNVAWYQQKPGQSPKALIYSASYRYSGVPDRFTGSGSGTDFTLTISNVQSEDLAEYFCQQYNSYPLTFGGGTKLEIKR
2.32
